Where a name gives a salt, the structure may show the parent alone.
Endpoint: melting point (°C)

> print(dat)
                                   molecule  result.number
1  COc1ccc(S(=O)(=O)C(Cc2cccnc2)(CC(C)C)C(=O)NO)cc1 (stereo not shown)             78

P: CCCCOc1ccc(S(=O)(=O)C2(C(=O)NO)CCN(CC)CC2)cc1
Q: CCN1CCC(C(=O)NO)(S(=O)(=O)c2ccc(Oc3ccc(Cl)cc3)cc2)CC1 (as salt: HCl)
Could you tell me which of P and Q has the lower melting point reading? Use the label to indicate which entry you chose.
P
(P: 98 °C, Q: 158 °C)
